# System: HEK-293 cells
# Experiment: HEK-293 cytotoxicity detection (CellTiter-Glo)
# Format: cell-based
# Cond: Homo sapiens, 72 h, 72 h incubation, CellTiter-Glo luminescence, read-out: HEK293
Measured Property: IC50

NC(=O)c1c(-c2ccc(Oc3ccccc3)cc2)nn2c1Nc1ccc(N3CCN(CC4CCN(c5ccc(N6CCC(=O)NC6=O)cc5)CC4)CC3)cc1CC2	0.0621 µM
Cc1cccc(NC(=O)c2ccc(-c3nn4c(c3C(N)=O)Nc3ccc(N5CCN(C6CN(C7CN(c8ccc9c(c8)C(=O)N(C8CCC(=O)NC8=O)C9=O)C7)C6)CC5)cc3CC4)c(F)c2C)n1 (centres unmarked)	> 10 µM
NC(=O)c1c(-c2ccc(Oc3ccccc3)cc2)nn2c1Nc1ccc(C(=O)NC3CCN(CC4CCN(c5cc6c(cc5F)C(=O)N(C5CCC(=O)NC5=O)C6=O)CC4)CC3)cc1CC2 (centres unmarked)	0.121 µM

[in] Sample Cc1cccc(NC(=O)c2ccc(-c3nn4c(c3C(N)=O)Nc3ccc(N5CCN(CC6CN(c7ccc(N8CCC(=O)NC8=O)cc7)C6)CC5)cc3CC4)c(F)c2C)n1 — what was its IC50?
[out] > 10 µM

[in] Sample COc1cc(F)ccc1C(=O)NCc1ccc(-c2nn3c(c2C(N)=O)Nc2ccc(N4CCN(CC5CCN(c6ccc(N7CCC(=O)NC7=O)cc6)CC5)CC4)cc2CC3)cc1C — what was its IC50?
[out] > 10 µM

----------
# System: HEK-293 cells
# Experiment: HEK-293 cytotoxicity detection (CellTiter-Glo)
# Assay type: cell-based
# Cond: Homo sapiens, 72 h, 72 h incubation, CellTiter-Glo luminescence, read-out: HEK293
pIC50: −log10 of the molar value.
Listed below: pIC50 values for each entry.

Cc1c(C(=O)Nc2nccs2)ccc(-c2nn3c(c2C(N)=O)Nc2ccc(N4CCN(CC5CCN(c6ccc(N7CCC(=O)NC7=O)cc6)CC5)CC4)cc2CC3)c1F [Example B83]	< 5.00
Cc1cccc(NC(=O)c2ccc(-c3nn4c(c3C(N)=O)Nc3ccc(N5CCN(C6CC(c7ccc(N[C@H]8CCC(=O)NC8=O)cc7)C6)CC5)cc3CC4)c(F)c2C)n1 (some centres unmarked) [Example B72]	< 5.00
Cc1cccc(NC(=O)c2ccc(-c3nn4c(c3C(N)=O)Nc3ccc(N5CCN(CC6CCN(c7ccc(N8CCC(=O)NC8=O)cc7)CC6)CC5)cc3CC4)cc2)n1 [Example B19]	< 5.00

[in] Any idea what pIC50 came out for COc1cc(Oc2ccccc2)ccc1-c1nn2c(c1C(N)=O)Nc1ccc(N3CCN(CC4CCN(c5ccc(N6CCC(=O)NC6=O)cc5)CC4)CC3)cc1CC2 [Example A36] on HEK-293 cells?
[out] 6.83

[in] Any idea what pIC50 came out for Cc1c(C(=O)Nc2cccc(-c3ccccc3)n2)ccc(-c2nn3c(c2C(N)=O)Nc2ccc(N4CCN(CC5CCN(c6ccc(N7CCC(=O)NC7=O)cc6)CC5)CC4)cc2CC3)c1F [Example B48] on HEK-293 cells?
[out] < 5.00

----------
# Tested on: HEK-293 cells
# Experiment: HEK-293 cytotoxicity detection (CellTiter-Glo)
# Assay type: cell-based
# Cond: Homo sapiens, 72 h, 72 h incubation, CellTiter-Glo luminescence, read-out: HEK293
pIC50: −log10 of the molar value.
Listed below: pIC50 values for each entry.

Below, each entry is followed by its recorded pIC50 result.
Cc1cccc(NC(=O)c2ccc(-c3nn4c(c3C(N)=O)Nc3ccc(N5CCN(CC6CCN(c7ccc8c(c7)CN(C7CCC(=O)NC7=O)C8=O)CC6)CC5)cc3CC4)c(F)c2C)n1 (stereo not drawn)	< 5.00
Cc1c(C(=O)Nc2cn(C)cn2)ccc(-c2nn3c(c2C(N)=O)Nc2ccc(N4CCN(C[C@H]5CCN(c6ccc(N7CCC(=O)NC7=O)cc6)C5)CC4)cc2CC3)c1F	< 5.00

// next entry
[in] Sample Cc1cc(-c2nn3c(c2C(N)=O)Nc2ccc(N4CCN(CC5CCN(c6ccc(N7CCC(=O)NC7=O)cc6)CC5)CC4)cc2CC3)ccc1CNC(=O)c1noc(C(C)(C)C)n1 — what was its pIC50?
[out] < 5.00
